Test system: 6C3HED lymphosarcoma;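 note: values are percent inhibition of tumor growth and not deaths per total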
Assay: animal or person
Assay type: in vivo
Details: Mus musculus, 6C3HED, po, read-out: % inhibition of tumor growth, oral, 75 mg/kg, BIDX 8
Outcome: satisfied for inhibition in vivo at 75 mg/kg of at least 70%; not satisfied for anything lower.

- compound: "NS(=O)(=NC(=O)Nc1ccc(Cl)cc1)c1ccc(CO)cc1 (stereo not drawn)"
  group label: "satisfied"
- compound: "Cc1ccc(S(=O)(=NC(=O)Nc2ccc(Cl)cc2)NCC(C)C)cc1 (stereo not drawn)"
  group label: "satisfied"
- compound: "Cc1ccc(S(=O)(=NC(C)C)NC(=O)Nc2ccc(Cl)cc2)cc1 (stereo not drawn)"
  group label: "satisfied"
- compound: "NS(=O)(=NC(=O)Nc1ccc(Cl)cc1)c1ccc(Br)cc1 (stereo not drawn)"
  group label: "not satisfied"
- compound: "CC(=O)OCc1ccc(S(=N)(=O)NC(=O)Nc2ccc(Cl)cc2)cc1 (stereo not drawn)"
  group label: "satisfied"
